Reference for the values: a melting point compilation (Tetko et al.; mined from patent text by program, amines drawn as free bases though some values may be those of a salt)

Recorded melting point for the following molecules
assay metric: melting point

O=C(O)COc1cccc2c1CCc1sc(S(=O)(=O)C(c3ccc(Cl)cc3)c3ccc(Cl)cc3)nc1-2; 197 to 199 °C
N#Cc1cc([N+](=O)[O-])ccc1Oc1ccc(C(=O)c2ccccc2)cc1; 180 °C
CCSc1nsc(NC(=O)N(C)C)c1C(N)=O; 147 °C
Cc1ccc(CCOc2ccc(CC3SC(=O)NC3=O)cc2)nc1 (stereo not given); 192 to 193 °C
CNN(NC)C(=O)Nc1cccc2c1C(=O)c1c-2n[nH]c1-c1ccc(OC)s1; 280 °C
CCOc1cc2ncc(C#N)c(Nc3ccc4c(c3)C(=O)OC4)c2cc1OCC; 280 to 284 °C
O=C1Nc2cccc(Cl)c2C(=O)N2CC=C[C@@H]12; 250 °C
COC(=O)Nc1cn2cc(S(=O)c3ccccc3)ccc2n1 (stereo not given); 247 to 248 °C
CN(C(=O)c1cccc(C(=O)O)c1)c1ccc2c(=O)n3c(nc2c1)C(=Cc1ccccc1)CC3; 302 to 304 °C
Cc1ccc(C)c(OCc2ccccc2C(=O)O)c1; 162 to 163 °C
CC(C)c1cc(S(=O)(=O)c2c(Br)cc(CCC(=O)O)cc2Br)ccc1O; 186 to 188 °C
CCCCCCCCS(=O)(=O)NC(Cc1cc2c(N)nccc2s1)C(=O)N1CCC(C)CC1 (stereo not given); 101 to 112 °C
CC(=O)N1CCNC1=NC(c1ccccc1)c1ccccc1; 234 to 236 °C
CCC12CCC3c4ccc(OC)cc4CCC3C1CCC2(OC(C)=O)C(C)=O (stereo not given); 144 to 148 °C
ON=C(c1ccccc1)c1cccc2nc(N[C@@H]3CCc4ccccc43)ccc12; 176 °C
O=C(O)c1ccc(S(=O)(=O)Oc2ccc(-c3ccc(-c4c(Cc5ccccc5)oc5ccccc45)cc3)cc2)cc1; 186 to 188 °C
CC(=O)SC(CC(=O)c1ccccc1C)C(=O)O (stereo not given); 106 to 108 °C
N#CN=c1ccccn1C1=CC(CF)(CF)Oc2ccc([N+](=O)[O-])cc21; 238 to 240 °C
CC(C)(C)c1cc(O)cc(C(C)(C)C)c1C=C1SC(NCO)=NC1=O; 177 to 179 °C
COc1ccc(CC(=O)NCCc2cccc(OC)c2OC)cc1OC; 80 °C
Cn1ncnc1COc1nn2c(C3CC3)nncc2c1-c1ccccc1F; 97 to 99 °C
CC(C)Sc1cc2c(cc1Cl)N=C(CCl)NS2(=O)=O; 248 to 250 °C
CC(C)C(=O)c1ccc(F)cc1O; 160 °C
CNS(=O)(=O)C(C)C(=O)C=C(C)N (stereo not given); 140 to 143 °C
CCC(=O)c1cc2c(Oc3ccc(Cl)cc3)cncc2s1; 101 to 102 °C
CCOC(=O)/C=C/c1nc(COc2ccc(CCl)cc2OC)c(C)o1; 107 to 108 °C
CC(C)(C)c1cc(S)cc(C(C)(C)C)c1; 47 to 49 °C
Cc1ccccc1NC(=O)c1cc([N+](=O)[O-])ccc1NC(=O)CF; 238 to 239 °C
CCCC12CCC3C4CCC(=O)C=C4CCC3C1CCC2O (stereo not given); 126 to 127 °C
Cc1nnc(-c2nnc(SCCC(F)=C(F)F)o2)o1; 77 to 79 °C
CC(=O)Nc1ccccc1C=C1c2ccccc2CCc2ccccc21; 190 °C
O=C1CCC(N2Cc3c(CNC(=O)c4cccc(Cl)c4)cccc3C2=O)C(=O)N1 (stereo not given); 266 to 268 °C
CCC(=C(c1ccccc1)c1ccc(N(CCN(CC)CC)S(C)(=O)=O)cc1)c1ccc(OC)cc1; 120 to 130 °C
Nc1ccc(CCC(=O)N(c2ccccc2)c2ccccc2)cc1N; 122 to 123 °C
COc1nccc(-c2c(-c3ccc(F)cc3)ncn2C2CCC(=O)CC2)n1; 212 to 214 °C
O=C1CCC(c2ccc3c(c2)CCC2(CCN(C4CCC4)CC2)O3)=NN1; 242 to 244 °C
O=C(CCc1nnc(Nc2ccccc2Cl)o1)NC1CCN(Cc2ccc(Cl)c(Cl)c2)CC1; 154 to 156 °C
COc1cc(Nc2nccc(-c3ccc(NCCCN4CCN(C)CC4)nc3)n2)cc(OC)c1OC; 183 to 184 °C
CCCCCCCCCCCCCCOc1ccc(C(=O)O)cc1OCCCCCCCCCCCCCC; 112 to 113 °C
Cc1nc(N)ncc1-c1ccncc1; 215 to 217 °C
